# assay_procedure: Quantitative High-Throughput drug screen in 47 multiple myeloma cell lines against the NCATS MIPE library collection: ARP1_JJKsccF8 cell viability assay (AID 1918928; also: nearly all actives have a fitted effect of over 40% in size)
# conditions: ARP1 myeloma cells viability, CellTiter-Glo ATP, 48 h; series mostly up to 45.8 µM
Records with an inconclusive call do not appear. Activity calls are given as the source filed them. Calls follow the shape of the dose curve; as a rule, active = well fitted cell-killing curve with a large enough effect; inconclusive = small, poorly fitted or top-dose-only effect, or effect the other way; inactive = no such curve, though single readings can be large or run the other way.
Outcome codes: active, inactive

>  <molecule_smiles>
COc1ccc2c(c1)CC[C@H]1[C@@H]2CC[C@]2(C)[C@@H](NCCCCCCN3C(=O)C=CC3=O)CC[C@H]12

>  <assigned_category>
inactive

$$$$
>  <molecule_smiles>
CN(C)CCN(Cc1ccc(Cl)cc1)c1ccccn1

>  <assigned_category>
inactive

$$$$
>  <molecule_smiles>
CC(C)(F)C[C@H](N[C@@H](c1ccc(-c2ccc(S(C)(=O)=O)cc2)cc1)C(F)(F)F)C(=O)NC1(C#N)CC1

>  <assigned_category>
inactive

$$$$
>  <molecule_smiles>
OC[C@H]1O[C@@H](O[C@H]2[C@@H](O)[C@@](O)(CO)O[C@@H]2CO)[C@H](O)[C@@H](O)[C@@H]1O

>  <assigned_category>
inactive

$$$$
>  <molecule_smiles>
CN(CC=CC#CC(C)(C)C)Cc1cccc2ccccc12

>  <assigned_category>
inactive

$$$$
>  <molecule_smiles>
C[C@H]1[C@H](O)O[C@@H]2O[C@@]3(C)CC[C@@H]4[C@H](C)CC[C@@H]1[C@@]24OO3

>  <assigned_category>
active

$$$$
>  <molecule_smiles>
CC(=O)OCC(=O)[C@@]12OC(C)(C)O[C@H]1C[C@H]1[C@@H]3C[C@H](F)C4=CC(=O)C=C[C@]4(C)[C@@]3(F)[C@@H](O)C[C@@]12C

>  <assigned_category>
active

$$$$
>  <molecule_smiles>
C[C@H]1O[C@@H](n2cc(F)c(=O)[nH]c2=O)[C@H](O)[C@H]1O

>  <assigned_category>
inactive

$$$$

Cited source: PubChem BioAssay (NCATS)
